measured-target: CRBN-DDB1 (Homo sapiens (Human), UniProt Q96SW2)
Sequence (Q16531 whole entry partner, one chain of several): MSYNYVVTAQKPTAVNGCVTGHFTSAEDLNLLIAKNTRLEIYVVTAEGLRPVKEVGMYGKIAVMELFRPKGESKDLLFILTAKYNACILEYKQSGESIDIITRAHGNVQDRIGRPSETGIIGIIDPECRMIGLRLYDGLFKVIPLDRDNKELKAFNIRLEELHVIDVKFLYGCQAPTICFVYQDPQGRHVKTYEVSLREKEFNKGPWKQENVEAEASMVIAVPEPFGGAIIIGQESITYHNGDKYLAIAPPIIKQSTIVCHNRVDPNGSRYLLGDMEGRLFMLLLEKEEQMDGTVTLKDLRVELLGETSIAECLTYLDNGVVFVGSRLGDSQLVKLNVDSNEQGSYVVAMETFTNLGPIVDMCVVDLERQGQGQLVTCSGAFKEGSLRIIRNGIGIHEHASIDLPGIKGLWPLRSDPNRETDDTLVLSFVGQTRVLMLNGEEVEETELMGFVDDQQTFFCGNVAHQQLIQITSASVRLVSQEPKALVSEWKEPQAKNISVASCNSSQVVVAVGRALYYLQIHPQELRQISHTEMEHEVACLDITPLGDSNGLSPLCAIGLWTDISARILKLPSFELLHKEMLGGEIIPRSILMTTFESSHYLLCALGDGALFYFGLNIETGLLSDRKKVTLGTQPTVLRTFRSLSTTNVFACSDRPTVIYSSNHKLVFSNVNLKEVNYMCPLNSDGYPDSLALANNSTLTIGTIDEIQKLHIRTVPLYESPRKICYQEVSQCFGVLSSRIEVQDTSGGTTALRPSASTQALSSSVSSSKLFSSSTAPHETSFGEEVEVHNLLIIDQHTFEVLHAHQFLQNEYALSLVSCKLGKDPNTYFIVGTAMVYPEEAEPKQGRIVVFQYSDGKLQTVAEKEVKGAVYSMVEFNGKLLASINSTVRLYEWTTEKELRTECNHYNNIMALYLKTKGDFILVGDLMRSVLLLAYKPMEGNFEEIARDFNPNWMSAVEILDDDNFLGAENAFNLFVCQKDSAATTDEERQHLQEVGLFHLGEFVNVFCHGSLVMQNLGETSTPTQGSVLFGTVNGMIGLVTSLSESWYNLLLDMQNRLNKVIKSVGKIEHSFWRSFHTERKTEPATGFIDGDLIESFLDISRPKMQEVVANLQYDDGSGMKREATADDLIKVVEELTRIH
experiment: Compound binding to CRBN by HTRF assay
measure: pEC50
On this scale, pEC50 is minus log10 of a concentration expressed in M (mol/L).

These recorded examples may help you get a feel for the data.
INSERT INTO results (molecule, reported_value) VALUES
  ('Cn1ccc2cc(C(C)(C)C(=O)NCc3cc(Cl)c(C4CCC(=O)NC4=O)c(Cl)c3)ccc21 (stereo not drawn)', 7.30),
  ('Cc1cnc(C(C)(C)C(=O)NCc2cc(Cl)c([C@@H]3CCC(=O)NC3=O)c(Cl)c2)nc1 (single isomer, unassigned)', 6.74),
  ('CC(C)(C(=O)NCc1cc(Cl)c(C2CCC(=O)NC2=O)c(Cl)c1)c1cc(C(F)(F)F)on1 (stereo not drawn)', 6.96),
  ('CCOc1cnc(C(C)(C)C(=O)NCc2cc(F)c(C3CCC(=O)NC3=O)c(Cl)c2)cn1 (stereo not drawn)', 7.30),
  ('CC(C)(C(=O)NCc1cc(Cl)c(C2CCC(=O)NC2=O)c(Cl)c1)c1cccc(S(N)(=O)=O)c1 (stereo not drawn)', 7.22);

Consider the additional molecule presented here.
Lookup: Request the reported pEC50 associated with CC(C)(C(=O)NCc1cc(Cl)c(C2CCC(=O)NC2=O)c(Cl)c1)c1ncc(C#N)cn1 (stereo not drawn)
Found: 6.92

====

// DC50 lookup, one value per entry
measured-target: NEK7 (Homo sapiens (Human), UniProt Q8TDX7+Q96SW2)
Sequence (Q8TDX7 whole entry): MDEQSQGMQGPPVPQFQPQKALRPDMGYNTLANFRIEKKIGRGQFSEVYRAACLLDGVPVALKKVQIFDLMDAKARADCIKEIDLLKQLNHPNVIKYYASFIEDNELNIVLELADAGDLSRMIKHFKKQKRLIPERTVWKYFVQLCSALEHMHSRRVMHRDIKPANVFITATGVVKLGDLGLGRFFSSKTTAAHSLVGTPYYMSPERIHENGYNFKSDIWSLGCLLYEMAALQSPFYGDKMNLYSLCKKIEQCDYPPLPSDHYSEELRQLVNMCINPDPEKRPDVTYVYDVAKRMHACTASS
Sequence (Q96SW2 whole entry): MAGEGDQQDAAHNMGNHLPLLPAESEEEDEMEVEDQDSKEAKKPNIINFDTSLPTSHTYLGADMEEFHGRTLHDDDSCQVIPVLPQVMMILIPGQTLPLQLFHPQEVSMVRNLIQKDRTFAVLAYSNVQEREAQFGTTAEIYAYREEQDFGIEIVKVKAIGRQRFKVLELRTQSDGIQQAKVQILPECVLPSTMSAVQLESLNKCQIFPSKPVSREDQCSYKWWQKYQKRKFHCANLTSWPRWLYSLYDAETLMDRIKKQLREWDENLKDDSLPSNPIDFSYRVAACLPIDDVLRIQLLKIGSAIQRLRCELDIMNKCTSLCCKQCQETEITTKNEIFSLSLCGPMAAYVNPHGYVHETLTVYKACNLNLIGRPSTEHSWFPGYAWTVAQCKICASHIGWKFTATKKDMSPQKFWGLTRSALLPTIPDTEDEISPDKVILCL
Sequence (Q16531 2-1140 partner): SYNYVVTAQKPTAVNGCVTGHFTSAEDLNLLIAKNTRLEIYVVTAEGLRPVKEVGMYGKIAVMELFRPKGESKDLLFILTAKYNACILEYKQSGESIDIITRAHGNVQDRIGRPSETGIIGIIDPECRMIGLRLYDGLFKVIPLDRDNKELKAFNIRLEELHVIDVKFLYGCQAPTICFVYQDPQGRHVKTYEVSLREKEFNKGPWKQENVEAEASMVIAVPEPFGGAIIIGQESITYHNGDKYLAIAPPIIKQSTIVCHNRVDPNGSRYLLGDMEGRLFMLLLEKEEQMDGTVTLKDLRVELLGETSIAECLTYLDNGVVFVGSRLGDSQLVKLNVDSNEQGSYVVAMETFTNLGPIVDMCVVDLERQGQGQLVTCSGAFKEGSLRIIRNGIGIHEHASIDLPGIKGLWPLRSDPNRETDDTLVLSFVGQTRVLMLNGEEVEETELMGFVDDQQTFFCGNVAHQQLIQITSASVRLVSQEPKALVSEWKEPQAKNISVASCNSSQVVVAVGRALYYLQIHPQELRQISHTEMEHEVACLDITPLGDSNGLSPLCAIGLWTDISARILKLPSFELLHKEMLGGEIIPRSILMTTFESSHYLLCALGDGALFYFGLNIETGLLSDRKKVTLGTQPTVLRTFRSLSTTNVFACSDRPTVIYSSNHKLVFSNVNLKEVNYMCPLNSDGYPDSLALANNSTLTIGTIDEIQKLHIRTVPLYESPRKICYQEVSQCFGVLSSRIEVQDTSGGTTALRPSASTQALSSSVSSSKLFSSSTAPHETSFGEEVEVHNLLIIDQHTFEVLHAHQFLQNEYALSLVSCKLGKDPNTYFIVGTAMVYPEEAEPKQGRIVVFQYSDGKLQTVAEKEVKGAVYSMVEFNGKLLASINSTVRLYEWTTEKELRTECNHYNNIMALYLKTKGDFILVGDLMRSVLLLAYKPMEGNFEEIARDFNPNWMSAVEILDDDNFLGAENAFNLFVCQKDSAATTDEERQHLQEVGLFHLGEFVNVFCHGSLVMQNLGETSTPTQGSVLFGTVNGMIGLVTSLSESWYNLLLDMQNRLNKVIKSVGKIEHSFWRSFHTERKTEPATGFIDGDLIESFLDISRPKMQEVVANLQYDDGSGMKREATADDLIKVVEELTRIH
experiment: NEK7 NanoBiT degradation assay in Cal51 NEK7 NanoBiT cell line
Assay type: cell-based
measurement-setup: NEK7 degradation, Cal51 NEK7 NanoBiT cells, 24 hours; read-out: NanoBiT DC50

INSERT INTO results (compound, reported_value) VALUES
  ('CC(C)(C(=O)NCc1cc(Cl)c(C2CCC(=O)NC2=O)c(Cl)c1)c1ccc(S(N)(=O)=O)cc1F (stereo not shown) [Compound 43]', '≤ 0.1 µM');

Lookup: Request the reported DC50 associated with Cn1cncc1C(C)(C)C(=O)NCc1cc(Cl)c(C2CCC(=O)NC2=O)c(Cl)c1 (stereo not shown) [Compound 123]
Found: 0.1 to 1 µM

Lookup: Request the reported DC50 associated with CC(C)(C(=O)NCc1cc(Cl)c(C2CCC(=O)NC2=O)c(Cl)c1)c1nnc(C(F)(F)F)o1 (stereo not shown) [Compound 208]
Found: 0.1 to 1 µM

Lookup: Request the reported DC50 associated with CC(C)(C(=O)NCc1cc(Cl)c(C2CCC(=O)NC2=O)c(Cl)c1)c1ccc(C(N)=O)cc1F (stereo not shown) [Compound 51]
Found: ≤ 0.1 µM

====

measured-target: NEK7 (Homo sapiens (Human), UniProt Q8TDX7+Q96SW2)
experiment: NEK7 NanoBiT degradation assay in Cal51 NEK7 NanoBiT cell line
Format: cell-based
measurement-setup: Cal51 NEK7 NanoBiT cells, 24 hours; read-out: NEK7 NanoBiT DC50
Field: label. Allowed values: YES (DC50 < 4 nM) or NO (DC50 >= 4 nM).

Example cases with answers are listed next.
INSERT INTO results (compound, assigned_class) VALUES
  ('CC(C)(C(=O)NCc1cc(Cl)c(C2CCC(=O)NC2=O)c(Cl)c1)c1ncoc1C(F)(F)F (stereo not shown)', 'NO'),
  ('Cc1coc(C(C)(C)C(=O)NCc2cc(Cl)c(C3CCC(=O)NC3=O)c(Cl)c2)n1 (stereo not shown)', 'NO'),
  ('Cc1cnc(C(C)(C)C(=O)NCc2cc(F)c(C3CCC(=O)NC3=O)c(Cl)c2)nc1 (stereo not shown)', 'NO'),
  ('CC(C)(C(=O)NCc1cc(Cl)c(C2CCC(=O)NC2=O)c(Cl)c1)c1ccc2[nH]cnc2c1 (stereo not shown)', 'YES'),
  ('CC(C)(C(=O)NCc1cc(Cl)c(C2CCC(=O)NC2=O)c(Cl)c1)c1ccc(F)cc1 (stereo not shown)', 'YES');

Lookup: Lab note: DC50 threshold 4 nM. Does this compound come in strictly under it? CCc1cnc(C(C)(C)C(=O)NCc2cc(Cl)c(C3CCC(=O)NC3=O)c(Cl)c2)cn1 (stereo not shown)
Found: NO

Lookup: Lab note: DC50 threshold 4 nM. Does this compound come in strictly under it? Cn1c(=O)[nH]c2cc(C(C)(C)C(=O)NCc3cc(Cl)c(C4CCC(=O)NC4=O)c(Cl)c3)ccc21 (stereo not shown)
Found: NO

Lookup: Lab note: DC50 threshold 4 nM. Does this compound come in strictly under it? CC(C)(C(=O)NCc1cc(Cl)c(C2CCC(=O)NC2=O)c(Cl)c1)c1ncc(N2CCC2)cn1 (stereo not shown)
Found: NO

Lookup: Lab note: DC50 threshold 4 nM. Does this compound come in strictly under it? CC(C)(C(=O)NCc1cc(Cl)c(C2CCC(=O)NC2=O)c(Cl)c1)C1CCCC1 (stereo not shown)
Found: NO

Lookup: Lab note: DC50 threshold 4 nM. Does this compound come in strictly under it? CC(C)(C(=O)NCc1cc(Cl)c(C2CCC(=O)NC2=O)c(Cl)c1)c1ccno1 (stereo not shown)
Found: NO
